Data credit: the supplement of paper PMC7877785

assay-text: self-splicing fitness, log relative to wild type (ln ratio); higher = more splicing; Tetrahymena group I intron in knt gene, E. coli kanamycin selection, DiMSum; sequences stand for … in CUCUCU…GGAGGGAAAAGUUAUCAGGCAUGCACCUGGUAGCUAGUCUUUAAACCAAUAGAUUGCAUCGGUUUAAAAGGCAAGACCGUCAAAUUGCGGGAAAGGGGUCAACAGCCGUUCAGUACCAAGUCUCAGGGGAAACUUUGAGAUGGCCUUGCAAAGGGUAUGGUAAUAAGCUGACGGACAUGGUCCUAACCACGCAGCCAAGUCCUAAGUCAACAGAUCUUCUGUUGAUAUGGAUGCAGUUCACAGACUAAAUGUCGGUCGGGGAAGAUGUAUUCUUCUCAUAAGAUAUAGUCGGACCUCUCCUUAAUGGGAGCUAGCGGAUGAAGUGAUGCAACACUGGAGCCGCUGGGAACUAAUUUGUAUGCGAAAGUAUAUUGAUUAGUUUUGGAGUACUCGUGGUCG;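 further: selection with 25 µg/mL kanamycin versus none on LB agar overnight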
condition-info: 37 °C
Would you mind labelling by self-splicing fitness (ln)? At or over -2 is met, under is not met.

GCUCAGCAAUAUUACGCUAC    not met
GCAUAGCAAUAUUACGCCCU    met
CCGAAGCAAUAUUACGAUCC    not met
AACUAGCAAUAUUACGCCGG    met
UAUCAGCAAUAUUACGUAUA    met

Task: Reported self-splicing fitness (ln) reaches at least -2 for CGCUAGCAAUAUUACGGCGA ?
Result: not met

Task: Entry UCGUAGCAAUAUUACGACCU please
Result: met

Task: Entry GGUCAGCAAUAUUACGAACU please
Result: met

Task: Entry GUGGAGCAAUAUUACGGCGA please
Result: met

Task: Entry GAACAGCAAUAUUACGUCGA please
Result: met

Task: Entry AUCAAGCAAUAUUACGGCAC please
Result: met

Task: Entry UCGGAGCAAUAUUACGAGUC please
Result: met

Task: Entry GUUUAGCAAUAUUACGCGCG please
Result: met

Task: Entry GAUUAGCAAUAUUACGGGGU please
Result: not met

Task: Entry CGGUAGCAAUAUUACGGAAG please
Result: met

Task: Entry GAAGAGCAAUAUUACGGGCA please
Result: met

Task: Entry GAAGAGCAAUAUUACGGCGU please
Result: met

Task: Entry UUGUAGCAAUAUUACGUGAC please
Result: met

Task: Entry GCGGAGCAAUAUUACGCUAU please
Result: not met

Task: Entry CCAUAGCAAUAUUACGAUGG please
Result: not met

Task: Entry GAAUAGCAAUAUUACGAGAA please
Result: met

Task: Entry CGCCAGCAAUAUUACGCAUC please
Result: not met

Task: Entry GGACAGCAAUAUUACGUGGU please
Result: met

Task: Entry GCGCAGCAAUAUUACGAGUC please
Result: met

Task: Entry GGCUAGCAAUAUUACGGGCU please
Result: not met

Task: Entry UUUGAGCAAUAUUACGCGUG please
Result: met
